target: E3 ubiquitin-protein ligase XIAP (Homo sapiens) (UniProt P98170); assay: XIAP binders, primary screen, biophysical, small-molecule microarray, fluorescence 635 nm (AID 1181); conditions: small-molecule microarray binding, higher = more signal;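 further: score merges 667 nm emission and signal to noise over triplicate slides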
Sequence (P98170 whole entry, looked up): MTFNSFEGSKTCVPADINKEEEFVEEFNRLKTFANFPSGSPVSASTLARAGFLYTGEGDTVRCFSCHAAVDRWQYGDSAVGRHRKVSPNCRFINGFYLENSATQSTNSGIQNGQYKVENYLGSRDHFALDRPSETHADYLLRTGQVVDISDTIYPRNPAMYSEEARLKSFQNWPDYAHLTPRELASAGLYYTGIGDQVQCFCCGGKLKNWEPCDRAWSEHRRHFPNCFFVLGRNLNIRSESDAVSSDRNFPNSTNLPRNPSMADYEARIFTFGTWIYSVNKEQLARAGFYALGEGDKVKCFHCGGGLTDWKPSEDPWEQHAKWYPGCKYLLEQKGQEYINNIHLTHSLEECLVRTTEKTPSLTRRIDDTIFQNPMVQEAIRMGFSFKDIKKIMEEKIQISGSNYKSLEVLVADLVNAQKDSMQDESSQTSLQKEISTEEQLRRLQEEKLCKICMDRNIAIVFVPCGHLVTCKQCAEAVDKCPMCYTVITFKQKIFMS
VALUE_KIND: composite z-score

MOLECULE | TGT | ASSAY_RESULT
O=C(N1CCCCC1)[C@@]1(Cc2ccccc2)N=C(c2ccc(OCCCO)cc2)O[C@H]1c1ccccc1 | E3 ubiquitin-protein ligase XIAP (Homo sapiens) (UniProt P98170) | -0.0448
COC(=O)C1=CC(CCCO)=CC(C2CC2)N(Cc2cc3c(cc2Br)OCO3)C=C1C(=O)OC (stereo not drawn) | E3 ubiquitin-protein ligase XIAP (Homo sapiens) (UniProt P98170) | 0.295
CCN(CC)c1ccc(N2CC=CC34O[C@@H]5C=CCOC(=O)[C@@H]5[C@H]3C(=O)N(C(CO)C(C)C)[C@@H]4C2=O)cc1 (stereo partly drawn) | E3 ubiquitin-protein ligase XIAP (Homo sapiens) (UniProt P98170) | 0.0139

* * *

biological target: Calmodulin-1 (Homo sapiens) (UniProt P0DP23); assay: CALM1 binders on microarrays, EGTA buffer, profiling panel, biochemical, small-molecule microarray, Cy5-labelled CALM1 (AID 1111); details: Cy5-CALM1 binding fluorescence, higher = more signal;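 further: labelled calmodulin applied in Tris saline Tween buffer holding calcium plus EGTA and DTT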

COMPOUND | composite z-score
COc1ccc(/C=C/C(=O)c2cccc(OCC(=O)OC(C)(C)C)c2)cc1 | -0.0784
CO[C@H]1O[C@H](CO)[C@@H](OC(=O)Nc2ccccc2)[C@H](OC(=O)Nc2ccccc2-c2ccccc2)[C@H]1OC(=O)Nc1ccccc1-c1ccccc1 | 2.18
COc1ccc([Si](C)(C)[C@H]2[C@H](CC(=O)N(CCO)Cc3ccccc3)O[C@@]3(C(=O)N(Cc4ccc(N5CCOC5=O)cc4)c4ccccc43)[C@@H]2C)cc1 | 0.228
O=C(NC1CC1)[C@@H]1c2ccccc2C(=O)N(Cc2ccccc2C(F)(F)F)[C@H]1c1ccc(CO)cc1 | 0.64
C#CCN1C(C(=O)OCC)OC[C@H]1c1ccccc1 (stereo not given in full) | -0.128

* * *

Catalogue of compounds with associated composite z-score
tested on: Lefty1; assay: Lefty1 binders on small-molecule microarrays, primary screen, biochemical, small-molecule microarray, 635/667 nm fluorescence (AID 1139); conditions: small-molecule microarray binding, fluorescence 635/667; higher = more signal

COMPOUND | TGT | composite z-score
Cc1ccc(S[C@]2(C(=O)NC3CC3)CC(=O)N(Cc3ccccc3C(F)(F)F)[C@@H]2c2ccc(CO)cc2I)cc1 | Lefty1 | -0.258
C[N+](C)(C)CCCC[C@@H]1NC(=O)[C@H]2C[C@@H](C(=O)NCCCCCN)[C@@H](c3cccc(OCCO)c3)N2C1=O | Lefty1 | 0.17
CC(C)C(=C=CC[C@H](O)c1ccc(OCCO)cc1)C[C@H](O)COCc1ccccc1 | Lefty1 | 0.795
COCCCNC(=O)[C@@]1(Cc2ccccc2CN=[N+]=[N-])COC(c2ccc(OCCCO)cc2)=N1 | Lefty1 | -0.713
CO[C@H]1O[C@H](CO)[C@@H](OC(=O)CCc2ccccc2)[C@@H]2OC(=O)[C@H](Cc3ccccc3)C/C=C/C[C@@H](Cc3ccccc3)C(=O)O[C@@H]12 | Lefty1 | -0.71
CC(C)CNC(=O)[C@@H]1c2ccccc2C(=O)N(Cc2ccc(OC(F)(F)F)cc2)[C@H]1c1ccc(CO)cc1 | Lefty1 | 1.52
Cc1ccc(N2C(=O)c3ccccc3[C@](C)(C(=O)NCC(F)(F)F)[C@@H]2c2ccc(CO)cc2)nc1 | Lefty1 | -2.1
COCCOC(=O)N1C(=O)[C@@]2(c3cc(C#CC4(O)CCCCCC4)ccc31)[C@H](C(=O)NC[C@H](O)c1ccccc1)[C@H]1C(=O)O[C@H](c3ccccc3)[C@H](c3ccccc3)N1[C@@H]2c1ccccc1OCCO | Lefty1 | 1.4
COc1ccc(C#Cc2ccc3c(c2)[C@]2(C(=O)N3)[C@H](c3ccc(O)cc3)N3[C@H](c4ccccc4)[C@H](c4ccccc4)OC(=O)[C@H]3[C@@H]2C(N)=O)cc1 | Lefty1 | -0.9
O=C1c2ccccc2[C@@]2(Cc3ccccc3N(CC(F)(F)F)C2=O)[C@H](c2ccc(CO)cc2)N1Cc1ccccc1C(F)(F)F | Lefty1 | -1.87
CC(=O)NCCCC[C@@H]1NC(=O)[C@@H]2C[C@H](C(=O)O)[C@H](c3cccc(OCCO)c3)N2C1=O | Lefty1 | 1.42
C=C[C@H](OC)[C@@H](OC(=O)Nc1ccc(OC)cc1)c1ccc(OC)c(O)c1 | Lefty1 | -1.75
C/C=C/[C@@H](CCn1cc(CCO[Si](C(C)C)(C(C)C)C(C)C)nn1)[Si](C)(C)c1ccc(OC)cc1 | Lefty1 | -1.16
CO[C@H]1O[C@H](CO)[C@@H](OC(=O)Nc2ccccc2)[C@H](OC(=O)Nc2ccccc2-c2ccccc2)[C@@H]1OC(=O)Nc1ccccc1-c1ccccc1 | Lefty1 | 0.36
O=c1n(-c2ccccc2)c(=O)n2n1CC(COc1ccccc1)=C1[C@@H](CCc3ccccc3)OB(O)C[C@@H]12 | Lefty1 | 1.52
CC(C)(C)OC(=O)CC[C@@]12N=C(c3ccc(OCCCO)cc3)O[C@@H]1c1ccccc1N(Cc1ccccc1)C2=O | Lefty1 | 0.345
O=C(NCC(F)(F)F)[C@@H]1c2ccccc2C(=O)N(C2Cc3ccccc3C2)[C@H]1c1ccc(CO)cc1 | Lefty1 | -1.25
CCCCCN1CC=CC23O[C@@H]4/C=C\CCC(C)OC(=O)C4[C@H]2C(=O)N(CCCO)[C@@H]3C1=O (some centres not stated) | Lefty1 | -1.2
CCCCC(=C=CC[C@@H](O)c1ccc(OCCO)cc1)C[C@@H](O)c1cc(Cl)cc(Cl)c1O | Lefty1 | 0.255
C=C(/C(=C/C[C@H](OC(=O)c1ccncc1)c1cccc(OCCO)c1)c1cc(C(=O)OC)ccc1OC)C(C)C | Lefty1 | 0.411
CO[C@H]1O[C@H](CO)[C@@H](OC(=O)Nc2ccccc2)[C@H](OC(=O)Nc2ccc3c(c2)OCO3)[C@H]1OC(=O)Nc1ccc2c(c1)OCO2 | Lefty1 | 0.345
C=CCN1C(=O)[C@@]2(O[C@@H](CCn3cc(CCO)nn3)[C@H]([Si](C)(C)c3ccc(OC)cc3)[C@H]2C)c2cc(N3C(=O)c4cccc5cccc3c45)ccc21 | Lefty1 | 0.537

Reference source for all entries: PubChem BioAssay
